Examples of sequences with documented protein stability index follow.
experiment: protein stability index of a GFP-peptide fusion (GPS, HEK-293T) (PSI 1-6); higher = more stable; conditions: treatment: DMSO; c terminus: a fixed tail appended;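 also: 24-mer peptide tiles fused after GFP, lentivirally expressed, FACS-sorted into six equal bins by GFP/DsRed ratio, decoded by Illumina sequencing, PSI is the read-weighted mean bin number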
Form rule: numeric answer, no unit written next to it.

Reference set, count: 6
> print(dat)
                            sequence        observed.property  obs.value
1  LVGIFILAVSRPRSSPDDLKALTR [SCARA5]  protein stability index       2.84
2   LRKAVLKNLYKLASQCCGVHVISL [PTGFR]  protein stability index       2.79
3  GALWGLQAQAVQTEQAVALLRDRT [SCARA5]  protein stability index       3.07
4  FSQKHFPEVVQHEEFILLSQGEVE [KLHL12]  protein stability index       3.44
5   AFLEPDETFIVPDSFLVALDMDDG [SPSB1]  protein stability index       3.46
6   VLGEDVIVNDELYLNGASVLPHKS [GMPPB]  protein stability index       4.23

Next sequence, please.
Request: Reported protein stability index, sequence YHRETEGEEQAQLLHVSSPNLASD [KCNA1] : ____
Result: 5.16

---

test: protein stability index of a GFP-peptide fusion (GPS, HEK-293T) (PSI 1-6); higher = more stable; conditions: treatment: DMSO; c terminus: a fixed tail appended
observed.property: protein stability index
Please respond with just the number, no unit label.

Some sequences with recorded protein stability index:
> print(dat)
                              sequence  obs.value
1  YCKTSDGRVVPESQCQMETKPLAI [ADAMTSL2]       3.94
2   LISKLPYIHFFHTVLKQIAPEYFE [DENND6A]       2.64
3    CKGRDHGVLDALHVLEGLFRTDPE [ZSWIM9]        2.8
4    SKLSLLLNDISRKSEGLSGRVLRK [TRIP13]       2.82
5      ELRFLLVYLHGDDHQDSDEFCRNT [FAF2]       2.29

Request: Entry under review: EPHSLLHLSRLCVRHNLGDTRLGQ [SPSB2] . Reported protein stability index?
Result: 3.44

Request: Next up: ILRLPLEHACTVRNLARSQSVKMK [TAF7L]
Result: 2.92

Request: Another sequence to look at: APDGSYFAWSQGHRTVKLVPWSQC [WSB1]
Result: 2.57

Request: Further, for PPSRGHGYRDYGHSRRHESYSRGY [RBMY1A1] ?
Result: 3.96

Request: # repeat for QLQLKIIEIEDEAEKWQKEKDRIK [TRIM29]
Result: 3.35

Request: Also need GIAIVSVLVILISIVIFCLETLPE [KCNA3] , thanks.
Result: 2.21

Request: Follow-up entry: IFIARRSLLDELLEVDHIRTIYHM [SOAT1]
Result: 2.8

Request: Same thing, different sequence: RYISMSVWTSPRRLVELAGQSLLK [PRAME]
Result: 2.89

---

assay: protein stability index of a GFP-peptide fusion (GPS, HEK-293T) (PSI 1-6); higher = more stable; conditions: treatment: DMSO; c terminus: a fixed tail appended
Ranges used to classify protein stability index: interval 1 (below 3), interval 2 (3 to below 4), interval 3 (4 or more)

> print(dat)
                            sequence  label.value
1  TNETNVNIPQMADTLFERATNSSW [SNAP91]   interval 2
2    EEARRNRLMRDMAQLRLQLEVSQL [SMG5]   interval 1
3  NYGKILVEKNEHCIENNIDLQVNR [R3HDM1]   interval 2
4  LKPLLSPSSETTVTVELPEADRAG [LYSMD4]   interval 3

Request: Class? Entry: DEASAATPPSSRRVWSPPRVHKVE [ZBTB22]
Result: interval 3

---

test: protein stability index of a GFP-peptide fusion (GPS, HEK-293T) (PSI 1-6); higher = more stable; details: treatment: DMSO; c terminus: a fixed tail appended
Respond with YES for protein stability index values of 3 and above, NO for values below.

> print(dat)
                            sequence  label.value
1   QDSSVTSKRNIKKGAVPRSIPNLA [HDAC6]          YES
2   DIETACKLLNITADPMDWSPSNVQ [SPDEF]           NO
3  ILHIPQVTKLCVQFLNDQISVQNY [KLHL14]           NO
4  LDKLNFEAINFCRGLGSQASTVTE [ACSBG2]          YES
5    AATPRTNSVISVCSSSNLAGNDDS [DLC1]          YES
6    PQYTIRCRPLQFQPSKSHKKVLKK [ATE1]          YES

Request: Is protein stability index at least 3? Consider SRLLGAAAGQRSRPSTYYELLGVH [DNAJC4]
Result: NO

Request: Likewise for FRDAAEEGGTAVTGGQTVVNPWII [SEPHS2] ?
Result: YES

Request: Then SNANYSVKKCIFLLFINHRLVEST [MLH1] ?
Result: YES

Request: For QKFRNQFLSFSMYQSFVQFLQYYY [TMEM120A] then?
Result: NO

Request: Queued: VITYILLSGASPFLGETKQETLTN [DAPK3]
Result: NO

Request: Then what about the sequence YQRNLPRPGQAPIGNPPVGPIGGM [ZNF207] ?
Result: NO

Request: Repeat for the following sequence: CRTYIIHYYLMDDTVEIREVHERN [EFHC1]
Result: NO

---

Below: a set of entries, each annotated with reported protein stability index.
assay: protein stability index of a GFP-peptide fusion (GPS, HEK-293T) (PSI 1-6); higher = more stable; settings: treatment: MLN4924 1 uM, 8 h; c terminus: native
Write no unit; give the number alone.

See these solved cases before continuing.
> print(dat)
                          sequence        observed.property  obs.value
1   SKPKNSVWKRLKSPFRKKKDSVT [RIT1]  protein stability index          3
2  VQFVFDAVTDVIIKNNLKDCGLF [GNAI1]  protein stability index       2.61
3  AALHMVIVAAFTWAFTLFFEVSE [KMT2E]  protein stability index       2.34

Shifting focus to the sequence that follows.
Request: // protein stability index lookup, key: AVQRFCLIGSLSKHESEYNTTRV [NETO1]
Result: 2.48

---

Listed below: protein stability index values for each entry.
test: protein stability index of a GFP-peptide fusion (GPS, HEK-293T) (PSI 1-6); higher = more stable; settings: treatment: MLN4924 1 uM, 8 h; c terminus: a fixed tail appended
Returns: the value as a bare number; no unit string appended.

Use the examples below as a reference point.
> print(dat)
                              sequence  obs.value
1     KSMHREELEKSGHGQAGQRQDPRP [ZBED2]        5.2
2      QSGRHLQTHSNTIVVSLQSKLASM [STX5]       2.97
3     QRDGSKSEDELDQASTPTDVRDID [CCND2]       5.62
4      PLQDFPNSISSDKEATVPCTEILT [MIA2]       4.54
5  EVETEGPESADTGDKSESPDEANV [TOR1AIP2]       5.58
6     DPCVISQEIMEKYNIKLKWTNQQK [CFHR2]       2.92
7     RVDQDKDKDCSLDCAGSPQKPLCA [SMOC2]       5.31
8    MRMSDTVTVKDETATMKDLEAEVK [R3HDM1]       5.37

Request: I have this sequence here, EQSSARQKASLLIQQALTMFPGVL [TCF25] , and I need its recorded protein stability index.
Result: 2.54

Request: What do you have for LKFHKLVNVTIHFRLKTINLQSLI [MCOLN1] ?
Result: 3.12

Request: Now the sequence KIMGVEEEDDDDDDDDNLPQLKKE [ANKRD40]
Result: 5.46

Request: One more sequence: DLGNACWVHKHFTEDIQTRQYRSI [SRPK2]
Result: 2.72

Request: Same read-out for KQNPGKFCLLSCGILTFLAVLGRY [RETREG3] ?
Result: 2.54

---

experiment: protein stability index of a GFP-peptide fusion (GPS, HEK-293T) (PSI 1-6); higher = more stable; details: treatment: DMSO; c terminus: a fixed tail appended
# binarize protein stability index: threshold 3 inclusive, high side Condition met, low side Condition not met

Please review the following examples before continuing.
> print(dat)
                            sequence        label.value
1     RRLYEKKIFEYETQRRRLSPPSSS [EMD]      Condition met
2    AKELTAEKRLEGQEEEEDNRDSSM [CHGA]      Condition met
3    LLEEGGLVQVESVNLQVATYSKFQ [UFD1]  Condition not met
4   KPYGCVECGKAFSRSSILVQHQRV [ZNF24]  Condition not met
5  GYSLADWVCLAYFTSGFNAAALDY [SPACA3]      Condition met
6  DRAVNDYPSLYYPEMYILKGGYKE [CDC25B]  Condition not met
7   RNLDASPTYKGLLMSLQNQLKESK [CEP70]      Condition met
8  ASSGDLTCGVCALELGSTEVLLDH [PLAGL1]  Condition not met

Request: Is protein stability index at least 3? Consider RGIHNIQKRYHCKECGKVFSQSAG [ZSCAN9]
Result: Condition not met

Request: Try this sequence too: VQYGAGVACSETAPDLVLNAEMVQ [LOXL2]
Result: Condition met

Request: For PPELTASRQSFRMAMGNPSEFFVD [DVL3] then?
Result: Condition met

Request: Now try IQLIKTNKKHIHSRSTLECAYRTH [SMG5] .
Result: Condition not met

Request: Input PTTSFLSISKLSPFSEFFKLRFNR [PWWP2B]
Result: Condition not met
